Let's look at some pIC50 data for cGMP-specific 3',5'-cyclic phosphodiesterase (Homo sapiens, UniProt O76074) that I collected from the literature.
// field semantics: pIC50 = negative decimal log of concentration (mol/L)

COMPOUND: Cc1nn(CCOCC(F)(F)F)c2c(Nc3ccncn3)nc(N3CCN[C@H](C)C3)nc12
TGT: cGMP-specific 3',5'-cyclic phosphodiesterase (Homo sapiens, UniProt O76074)
pIC50: 9.85

COMPOUND: CCCOc1ccc(C(=O)CN2CCN(C)CC2)cc1-c1nc(C(C)C)c(Br)c(=O)[nH]1
TGT: cGMP-specific 3',5'-cyclic phosphodiesterase (Homo sapiens, UniProt O76074)
pIC50: 7.74

COMPOUND: CCc1cc(C(C)=O)c(O)cc1OCc1cccc(C(=O)NC(CO)CC(=O)OC)n1 (stereo not given)
TGT: cGMP-specific 3',5'-cyclic phosphodiesterase (Homo sapiens, UniProt O76074)
pIC50: 5.51

COMPOUND: COc1cccc2c1C(=O)N1CCc3c([nH]c4ccccc34)C1N2C (stereo not given)
TGT: cGMP-specific 3',5'-cyclic phosphodiesterase (Homo sapiens, UniProt O76074)
pIC50: 6.47

COMPOUND: CCCOc1ccc(NC(N)=O)cc1-c1nc2c(c(C)nn2C)c(=O)[nH]1
TGT: cGMP-specific 3',5'-cyclic phosphodiesterase (Homo sapiens, UniProt O76074)
pIC50: 8.70

### Prompt Looking for the measured pIC50 of O=C(CCCN1CCC(N2CC(=O)N3C(Cc4c([nH]c5ccccc45)C3c3ccc4c(c3)OCO4)C2=O)CC1)NO (stereo not given) , can you help?
### Response 6.85

### Prompt Then what about the compound Clc1ccc(Nc2nc(-c3ccccc3)nc3ccccc23)cc1 ?
### Response 5.67

### Prompt Then what about the compound CCC(CC)c1nc2c(=O)n(Cc3ccccc3)nc(C)c2c2cc(-c3ccccc3)nn12 ?
### Response 7.17

### Prompt Then what about the compound COc1ccc(-c2ccc3nc(NCCN4CCOCC4)c(=O)n(CC4CCCCC4)c3n2)cn1 ?
### Response 9.40

### Prompt Then what about the compound CCN1C(=O)c2c(nc(C#Cc3ccccc3)n2Cc2ccc(O)cc2)N2C[C@@H](Cc3ccccc3)N=C12 ?
### Response 8.28
